These entries and their values trace back to ChEMBL document CHEMBL4680254.

# test protocol: Tmax in Sprague-Dawley rat at 5 mg/kg, iv
# Assay type: ADME, organism-based
# stated conditions: in vivo
measured parameter: Tmax

Dear colleague, I am looking for the recorded Tmax of the following compound: O=C(CN1CCN(C(=O)C2CC2)CC1)Nc1ccc(Oc2cc(=O)[nH]c3ccccc23)c(F)c1 4.8 min

* * *

inhibition at 10 µM values by entry
# Test system: NRK-49F
# test protocol: Inhibition of TGF-beta-induced collagen accumulation in rat NRK-49F cells at 10 uM incubated for 2 days by PSR staining based microscopic analysis relative to control
# Format: functional
# stated conditions: 48 h, time 2 day
Quick reminder: number only, in %, skip the unit.

Examples with their reported inhibition at 10 µM follow.
{"columns": ["smiles str", "unit info", "inhibition at 10 µM"],
 "data": [
  ["CN(C)C1CCN(CC(=O)Nc2ccc(Sc3cc(=O)[nH]c4ccccc34)cc2)CC1", "%", 51.1],
  ["O=C(CN1CCOCC1)Nc1ccc(Oc2cc(=O)[nH]c3ccccc23)cc1", "%", 59.3],
  ["CC1CCN(CC(=O)Nc2ccc(Sc3cc(=O)[nH]c4ccccc34)cc2)CC1", "%", 28.6],
  ["O=C(CNC1CCOCC1)Nc1ccc(Oc2cc(=O)[nH]c3ccccc23)cc1", "%", 46],
  ["CC1CCN(CC(=O)Nc2ccc(Oc3cc(=O)[nH]c4ccccc34)c(F)c2)CC1", "%", 45.9]
]}

Give the reported inhibition at 10 µM for O=C(CN1CCN(C(=O)C2CC2)CC1)Nc1ccc(Oc2cc(=O)[nH]c3ccccc23)cc1 (system: NRK-49F). 78.3

Consider next the compound O=C(CN1CCCCC1)Nc1ccc(Nc2cc(=O)[nH]c3ccccc23)cc1 in the same way. 24.4

CC(C)(C)OC(=O)N1CCN(CC(=O)Nc2ccc(Oc3cc(=O)[nH]c4ccccc34)c(F)c2)CC1 ? 89.1

What would you report for CCNCC(=O)Nc1ccc(Oc2cc(=O)[nH]c3ccccc23)c(F)c1 ? 50.6

Also CCN(CC)CC(=O)Nc1ccc(Oc2cc(=O)[nH]c3ccccc23)c(F)c1 , if possible. 58.8
